Just for reference, the supplement of paper PMC11061612 is where these values come from.

- Test system: NCI-H2342 (Lung Adenocarcinoma)
- method: combination Emax (second highest fraction inhibited in the dose matrix, 72 h); higher = more inhibition; extreme values may be limits of the assay
reported-property: combination Emax
// keep it numeric: no unit symbol after the value

Problem: For the compound CN(CCO)CC[C@H](CSc1ccccc1)Nc1ccc(S(=O)(=O)NC(=O)c2ccc(N3CCC([C@@H](O)c4ccccc4-c4ccc(Cl)cc4)CC3)cc2)cc1S(=O)(=O)C(F)(F)F [AZD4320] + C=CCn1c(=O)c2cnc(Nc3ccc(N4CCN(C)CC4)cc3)nc2n1-c1cccc(C(C)(C)O)n1 [AZD1775] (first compound max 1 µM, partner max 1 µM) , give its measured combination Emax value.
Result: 0.38

###

- Tested on: LN-229 (Glioblastoma)
- method: combination Emax (second highest fraction inhibited in the dose matrix, 72 h); higher = more inhibition; extreme values may be limits of the assay
Each entry gets condition not met if its combination Emax stays under 0.2, and condition met if its combination Emax is 0.2 or above.

Problem: Quick check: does CCN(CCO)CCCOc1ccc2c(Nc3cc(CC(=O)Nc4cccc(F)c4)[nH]n3)ncnc2c1 [AZD2811] + C[C@@H]1COCCN1C2=NC(=NC(=C2)C3(CC3)[S@](=N)(=O)C)C4=C5C=CNC5=NC=C4 [AZD6738] (first compound max 1 µM, 7x7, partner max 10 µM) have combination Emax greater than or equal to 0.2?
Result: condition met

Problem: Is combination Emax for CC1(C)CCC(CN2CCN(c3ccc(C(=O)NS(=O)(=O)c4ccc(NCC5CCOCC5)c([N+](=O)[O-])c4)c(Oc4cnc5[nH]ccc5c4)c3)CC2)=C(c2ccc(Cl)cc2)C1 [Venetoclax] + C[C@@H]1COCCN1C2=NC(=NC(=C2)C3(CC3)[S@](=N)(=O)C)C4=C5C=CNC5=NC=C4 [AZD6738] (first compound max 1 µM, 7x7, partner max 10 µM) at or above 0.2?
Result: condition met

Problem: Check this compound for combination Emax at or above 0.2: CCN(CCO)CCCOc1ccc2c(Nc3cc(CC(=O)Nc4cccc(F)c4)[nH]n3)ncnc2c1 [AZD2811] + C=CCn1c(=O)c2cnc(Nc3ccc(N4CCN(C)CC4)cc3)nc2n1-c1cccc(C(C)(C)O)n1 [AZD1775] (first compound max 1 µM, partner max 1 µM)
Result: condition met

Problem: Evaluate COc1cc2c(cc1OCCCCCOc1cc3c(cc1OC)C(=O)N1C=C(C)C[C@H]1C=N3)N=C[C@@H]1CC(C)=CN1C2=O [SG3199] + O=C(c1cc(Cc2n[nH]c(=O)c3ccccc23)ccc1F)N1CCN(C(=O)C2CC2)CC1 [Olaparib] (first compound max 0.001 µM, 7x7, partner max 10 µM) : combination Emax at minimum 0.2?
Result: condition not met

Problem: Exam item: decide whether the reported combination Emax for COc1nnc2ccc(N3CCC(c4ccc(OCCN5CCN(C)C(=O)[C@H]5C)cc4)CC3)nn12 [AZD5153] + C[C@@H]1COCCN1C2=NC(=NC(=C2)C3(CC3)[S@](=N)(=O)C)C4=C5C=CNC5=NC=C4 [AZD6738] (first compound max 1 µM, 7x7, partner max 10 µM) is at least 0.2.
Result: condition met

###

- System: NCI-H23 (Lung Adenocarcinoma)
- method: Bliss excess, mean over the matrix (fraction); higher = more synergy
reported-property: Bliss excess
Please reply with the number alone, leaving off any unit.

Problem: For NCI-H23 (Lung Adenocarcinoma), give the measured Bliss excess of the entry Cc1cc2ncnn2cc1Nc1ncc2c(n1)n(C1CCOCC1)c(=O)n2C [AZD7648] + C[C@@H]1COCCN1C2=NC(=NC(=C2)C3(CC3)[S@](=N)(=O)C)C4=C5C=CNC5=NC=C4 [AZD6738] (first compound max 10 µM, 7x7, partner max 10 µM)
Result: -0.0617

Problem: Provide NCI-H23 (Lung Adenocarcinoma) Bliss excess reading for CCN(CCO)CCCOc1ccc2c(Nc3cc(CC(=O)Nc4cccc(F)c4)[nH]n3)ncnc2c1 [AZD2811] + C=CCn1c(=O)c2cnc(Nc3ccc(N4CCN(C)CC4)cc3)nc2n1-c1cccc(C(C)(C)O)n1 [AZD1775] (first compound max 1 µM, partner max 1 µM) .
Result: -0.0005

Problem: Send back NCI-H23 (Lung Adenocarcinoma) Bliss excess of C[C@@H](c1ccc2nccn2c1)n1nnc2ncc(-c3cnn(C)c3)nc21 [Savolitinib] + CC1(C)CCC(CN2CCN(c3ccc(C(=O)NS(=O)(=O)c4ccc(NCC5CCOCC5)c([N+](=O)[O-])c4)c(Oc4cnc5[nH]ccc5c4)c3)CC2)=C(c2ccc(Cl)cc2)C1 [Venetoclax] (first compound max 1 µM, 7x7, partner max 1 µM) only.
Result: -0.0486
